Where do these numbers come from? They come from patent US20250326771A1.

Molecular target: cIAP1-BIR3 (Homo sapiens (Human))
Sequence (Q13490 253-363): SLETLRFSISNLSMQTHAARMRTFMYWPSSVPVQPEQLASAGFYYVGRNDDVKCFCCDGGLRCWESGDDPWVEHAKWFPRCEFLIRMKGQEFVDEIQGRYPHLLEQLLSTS
Assay: BIR binding assay (FRET competition), cIAP1 BIR3
Below: a set of entries, each annotated with reported IC50.

{"smilesRepresentation": "C[C@@H]1CN(CC(=O)N2CC(C)(C)c3[nH]c(=O)c(Cc4ccc(F)cc4)cc32)[C@@H](CN2CCO[C@H](COCc3cccc(COC[C@@H]4CN(C[C@H]5CN[C@H](C)CN5CC(=O)N5CC(C)(C)c6[nH]c(=O)c(Cc7ccc(F)cc7)cc65)CCO4)n3)C2)CN1", "system": "cIAP1-BIR3 (Homo sapiens (Human))", "IC50": "7.94 to 15.8 nM"}

Could you now consider this next compound?
Qu. Supply IC50 value. Item: "C[C@@H]1CN(CC(=O)N2CC(C)(C)c3[nH]c(=O)c(Cc4ccc(F)cc4)cc32)[C@@H](CN2CCC[C@H](NC(=O)CCCCCCCCCCCCC(=O)N[C@H]3CCCN(C[C@H]4CN[C@H](C)CN4CC(=O)N4CC(C)(C)c5[nH]c(=O)c(Cc6ccc(F)cc6)cc54)C3)C2)CN1"
Ans. 15.8 to 31.6 nM
